# MEASURED ON: Zif268 finger 2 variant REDV finger 2 alpha-helix variant REDV (full helix only in FIG. 1D) (Mus musculus)
# APPLIED CONDITIONS: [none]; apparent Kd interpolated from microarray signal 0.063
QUANTITY KIND: Kd (nM)

> print(dat)
                            record.sequence  quantity.kind  value
1  TATATAGCGACGGCGTATATATCAAGTCAATCGGTCC (double strand) [Zif268 site ACG]             Kd   1700
2  TATATAGCGCCCGCGTATATATCAAGTCAATCGGTCC (double strand) [Zif268 site CCC]             Kd   1700

---

# MEASURED ON: Zif268 finger 2 variant RGPD finger 2 alpha-helix variant RGPD (full helix only in FIG. 1D) (Mus musculus)
# APPLIED CONDITIONS: [none]; apparent Kd interpolated from microarray signal 0.118
pKd: −log10 of the molar value.
QUANTITY KIND: pKd

> print(dat)
                            record.sequence  value
1  TATATAGCGGGGGCGTATATATCAAGTCAATCGGTCC (double strand) [Zif268 site GGG]   6.11

---

# MEASURED ON: Zif268 finger 2 variant KASN finger 2 alpha-helix variant KASN (full helix only in FIG. 1D) (Mus musculus)
# APPLIED CONDITIONS: [none]; apparent Kd interpolated from microarray signal 0.652
QUANTITY KIND: Kd (nM)

> print(dat)
                            record.sequence  quantity.kind  units.symbol  value
1  TATATAGCGGACGCGTATATATCAAGTCAATCGGTCC (double strand) [Zif268 site GAC]             Kd            nM   1300

---

# MEASURED ON: Zif268 finger 2 variant LRHN finger 2 alpha-helix variant LRHN (full helix only in FIG. 1D) (Mus musculus) (UniProt P08046)
# APPLIED CONDITIONS: [none]; apparent Kd interpolated from microarray signal 0.298
QUANTITY KIND: Kd (µM)

> print(dat)
                            record.sequence  units.symbol  value
1  TATATAGCGCCTGCGTATATATCAAGTCAATCGGTCC (double strand) [Zif268 site CCT]            µM    0.2

---

# MEASURED ON: Zif268 finger 2 variant LRHN finger 2 alpha-helix variant LRHN (full helix only in FIG. 1D) (Mus musculus)
# APPLIED CONDITIONS: [none]; apparent Kd interpolated from microarray signal 0.329
pKd: −log10 of the molar value.
QUANTITY KIND: pKd

> print(dat)
                            record.sequence  value
1  TATATAGCGTACGCGTATATATCAAGTCAATCGGTCC (double strand) [Zif268 site TAC]   6.77

---

# MEASURED ON: Zif268 finger 2 variant REDV finger 2 alpha-helix variant REDV (full helix only in FIG. 1D) (Mus musculus)
# APPLIED CONDITIONS: [none]; apparent Kd interpolated from microarray signal 0.056
pKd: −log10 of the molar value.
QUANTITY KIND: pKd

> print(dat)
                            record.sequence  value
1  TATATAGCGCAGGCGTATATATCAAGTCAATCGGTCC (double strand) [Zif268 site CAG]   5.74
